- measurement_target: hMrgpMRGPRX2 (Homo sapiens)
- Construct: expressed in transfected cells
- test_details: FLIPR intracellular calcium mobilization, antagonist activity in recombinant hMrgpMRGPRX2 expressing cells
- Format: cell-based
- stated_conditions: read-out: Human MrgprX2 Antagonist pIC50 (converted)
measured_endpoint: IC50 (nM)

The examples below pair each entry with its known result.
Ask | For hMrgpMRGPRX2 (Homo sapiens), provide IC50 of CCN(C[C@@H](O)C(F)(F)F)C(=O)Nc1ccc(Oc2ccc(F)cc2F)cn1 (single isomer, unassigned) [Compound E267] please.
Reply | 28.2

Ask | For hMrgpMRGPRX2 (Homo sapiens), provide IC50 of CC1(C)C(C(=O)Nc2ccc(Oc3ccc(C#N)cc3)cn2)C1(C)C please.
Reply | 31.6

Ask | For hMrgpMRGPRX2 (Homo sapiens), provide IC50 of CCN(C[C@@H](OC)C(F)(F)F)C(=O)Nc1cnc(Oc2ccc(F)cc2F)cn1 please.
Reply | 380

[a] CN(C[C@@](C)(O)C(F)(F)F)C(=O)Nc1cnc(Oc2cc(F)ccc2F)cn1
[b] N#CC1(C(=O)Nc2ccc(Oc3cc(F)cc(F)c3)cn2)CC1
[c] O=C(Nc1ccc(Oc2cccc(F)c2)cn1)C1(C(F)(F)F)CC1
Ask | Sort (3 compounds) by IC50: min first. Provide your answer as the labels ordered per the instruction.
Reply | a, c, b
(a: 2.57 nM, c: 398 nM, b: 3160 nM)

---

- measurement_target: hMrgpMRGPRX2 (Homo sapiens)
- Construct: expressed in transfected cells
- test_details: FLIPR intracellular calcium mobilization, antagonist activity in recombinant hMrgpMRGPRX2 expressing cells
- Format: cell-based
- stated_conditions: read-out: Human MrgprX2 Antagonist pIC50 (converted)
- Excerpt: Potent and selective hMrgpMRGPRX2 compounds have been generated from compounds identified during a high throughput screening (HTS) campaign and followed up with cycles of structure activity based medicinal chemistry efforts. […] The assays used to determine potencies are functional read-out looking at intracellular calcium mobilization using the FLIPR™ technology. […]
measured_endpoint: IC50 (nM)

Ask | Give its IC50 value. Item: CC(C)(C#N)C(=O)Nc1ccc(Oc2ccc(F)c(F)c2)cn1
Reply | 2000

Ask | Give its IC50 value. Item: CCN(C[C@@H](O)C(F)(F)F)C(=O)Nc1cc(Oc2cc(F)cc(F)c2)ccn1
Reply | 0.575

Ask | Give its IC50 value. Item: CC(C)C(=O)Nc1ccc(-c2ccccc2F)cn1
Reply | 316

Ask | Give its IC50 value. Item: CC1(C)C(C(=O)Nc2ccc(-c3cn[nH]c3)cn2)C1(C)C
Reply | 2510

Ask | Give its IC50 value. Item: CC1(C)CC(C(=O)Nc2ccc(Oc3ccc(F)c(F)c3)cn2)C1
Reply | 200

Ask | Give its IC50 value. Item: NS(=O)(=O)N1CCC[C@@H]1C(=O)Nc1ccc(Oc2cc(F)cc(F)c2)cn1
Reply | 240

[I] O=C(Nc1ccc(Oc2ccc(F)c(F)c2)cn1)C1CCOCC1
[II] CC1(C)CCN1C(=O)Nc1ccc(Oc2ccc(F)c(F)c2)cn1
[III] CC(C)C(=O)Nc1ccc(-c2cccc(F)c2)cn1
[IV] CC(C)C(=O)Nc1ccc(N2CCc3ccccc32)cn1
[V] CC(C)C(=O)Nc1ccc(Oc2ccc(F)cc2)cn1
Ask | Reorder: IC50, max to min. Provide your answer as the labels ordered per the instruction.
Reply | IV, I, II, V, III
(IV: 3980 nM, I: 2000 nM, II: 468 nM, V: 316 nM, III: 63.1 nM)

[a] N#C[C@H]1C[C@@H]1C(=O)Nc1ccc(Oc2ccc(F)c(F)c2)cn1
[b] CCN(C[C@@H](O)C(F)(F)F)S(=O)(=O)Nc1ccc(Oc2ccc(F)c(F)c2)cn1
Ask | // max by IC50 over [ a , b ] Identify your selection by its label.
Reply | b

[P] CN(C[C@H](O)C(F)(F)F)C(=O)Nc1ccc(Oc2ccc(F)c(F)c2)cn1
[Q] CCN(C[C@H](C)O)C(=O)Nc1ccc(Oc2ccc(F)c(F)c2)cn1
Ask | Select the item whose IC50 value is smaller, choosing between P and Q . Identify your selection by its label.
Reply | Q

---

- measurement_target: hMrgpMRGPRX2 (Homo sapiens)
- Construct: expressed in transfected cells
- test_details: FLIPR intracellular calcium mobilization, antagonist activity in recombinant hMrgpMRGPRX2 expressing cells
- Type: cell-based
- stated_conditions: read-out: Human MrgprX2 Antagonist pIC50 (converted)
measured_endpoint: IC50 (nM)

The examples below pair each entry with its known result.
Ask | Give its IC50 value. Item: CN(C[C@@H](O)C(F)(F)F)C(=O)Nc1cnc(Oc2ccc(F)cc2F)cn1
Reply | 13.2

Ask | Give its IC50 value. Item: CCN(CC(C)(C)O)C(=O)Nc1ccc(Oc2ccc(F)c(F)c2)cn1
Reply | 155

Ask | Give its IC50 value. Item: CN(C[C@@](C)(O)C(F)(F)F)C(=O)Nc1cnc(Oc2cc(F)cc(F)c2)cn1
Reply | 45.7

[P] O=C(Nc1ccc(Oc2cc(F)cc(F)c2)cn1)N1CC[C@H](CO)C1
[Q] CC1(C)CC1C(=O)Nc1cnc(-c2cc(F)cc(F)c2)cn1 (single isomer, unassigned) [Compound E231]
[R] CCN(C[C@@H](O)C(F)(F)F)C(=O)Nc1cc(Oc2cccc(F)c2)ccn1
Ask | Reorder: IC50, max to min. Provide your answer as the labels ordered per the instruction.
Reply | P, Q, R

---

- measurement_target: hMrgpMRGPRX2 (Homo sapiens, UniProt Q96LB1)
- Construct: expressed in transfected cells
- test_details: FLIPR intracellular calcium mobilization, antagonist activity in recombinant hMrgpMRGPRX2 expressing cells
- Assay type: cell-based
- stated_conditions: read-out: Human MrgprX2 Antagonist pIC50 (converted)
measured_endpoint: IC50 (µM)

Ask | Give its IC50 value. Item: CC1(C)C(C(=O)Nc2ccc(OC3COC3)cn2)C1(C)C
Reply | 1.07

Ask | Give its IC50 value. Item: CCN(C[C@@H](O)C(F)(F)F)C(=O)Nc1ccc(-n2cccn2)cn1
Reply | 8.71

Ask | Give its IC50 value. Item: CC(C)C(=O)Nc1ccc(Oc2ccnc(F)c2)cn1
Reply | 10

Ask | Give its IC50 value. Item: CCN(C[C@@H](O)C(F)(F)F)C(=O)Nc1cnc(Oc2cc(F)cc(F)c2)c(C)n1
Reply | 7.41

Ask | Give its IC50 value. Item: CC1(C)C(C(=O)Nc2ccc(-c3ncon3)cn2)C1(C)C
Reply | 0.0316

[I] CCN(C[C@@](C)(O)C(F)(F)F)C(=O)Nc1cnc(Oc2ccc(F)cc2F)cn1
[II] CCN(C[C@@H](O)C(F)(F)F)C(=O)Nc1ccc(Oc2ccc(C#N)cc2)cn1
[III] O=C(Nc1ccc(Oc2ccc(F)c(F)c2)cn1)[C@H]1C[C@@H]1C(F)(F)F
Ask | Sort (3 compounds) by IC50: min first. Provide your answer as the labels ordered per the instruction.
Reply | I, III, II

---

- measurement_target: hMrgpMRGPRX2 (Homo sapiens, UniProt Q96LB1)
- Construct: expressed in transfected cells
- Sequence (Q96LB1 1-330): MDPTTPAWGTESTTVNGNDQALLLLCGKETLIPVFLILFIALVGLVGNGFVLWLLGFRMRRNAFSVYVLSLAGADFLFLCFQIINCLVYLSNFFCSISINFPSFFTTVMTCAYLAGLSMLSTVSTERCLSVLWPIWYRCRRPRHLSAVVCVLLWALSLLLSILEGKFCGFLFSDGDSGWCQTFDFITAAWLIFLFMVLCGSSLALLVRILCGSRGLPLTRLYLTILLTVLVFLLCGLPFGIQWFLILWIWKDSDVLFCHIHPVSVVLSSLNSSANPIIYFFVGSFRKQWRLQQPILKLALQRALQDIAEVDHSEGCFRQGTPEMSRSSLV
- test_details: FLIPR intracellular calcium mobilization, antagonist activity in recombinant hMrgpMRGPRX2 expressing cells
- Format: cell-based
- stated_conditions: read-out: Human MrgprX2 Antagonist pIC50 (converted)
measured_endpoint: IC50 (nM)

Ask | Give its IC50 value. Item: CC1(C)C(C(=O)Nc2cnc(Cl)cn2)C1(C)C
Reply | 100

[I] CCN(CC(O)C(F)(F)F)C(=O)Nc1ccc(Oc2cccc(F)c2)cn1 (stereo not drawn)
[II] CC(C)C(=O)Nc1ccc(Cc2ccccc2F)cn1
Ask | Select the item whose IC50 value is smaller, choosing between I and II . Identify your selection by its label.
Reply | I

---

- measurement_target: hMrgpMRGPRX2 (Homo sapiens)
- Construct: expressed in transfected cells
- test_details: FLIPR intracellular calcium mobilization, antagonist activity in recombinant hMrgpMRGPRX2 expressing cells
- Format: cell-based
- stated_conditions: read-out: Human MrgprX2 Antagonist pIC50 (converted)
measured_endpoint: IC50 (nM)

The examples below pair each entry with its known result.
Ask | Give its IC50 value. Item: CC(C)C(=O)Nc1cc(-c2ccccc2)ccn1
Reply | 7940

Ask | Give its IC50 value. Item: CC1(C)C(C(=O)Nc2cc(Oc3cncc(F)c3)ccn2)C1(C)C
Reply | 7.94

Ask | Give its IC50 value. Item: CC1(C)C(C(=O)Nc2ccc(C(F)(F)F)cn2)C1(C)C
Reply | 501

Ask | Give its IC50 value. Item: N#Cc1cc(F)cc(Oc2ccc(NC(=O)C3CC3)nc2)c1
Reply | 10000

Ask | Give its IC50 value. Item: CC1(C)CC1C(=O)Nc1ccc(Oc2ccc(C#N)cc2)cn1 (centres unmarked)
Reply | 1260

[A] CCN(C[C@@H](O)C(F)(F)F)C(=O)Nc1ccc(OCc2cccc(F)c2)cn1
[B] CCN(C[C@@H](O)C(F)(F)F)C(=O)Nc1ccc(Oc2cccc(C#N)c2F)cn1
[C] CCN(C[C@@H](O)C(F)(F)F)C(=O)Nc1cnc(Oc2cccc(F)c2F)cn1
[D] CC1(C(=O)Nc2ccc(Oc3cccc(Cl)c3)cn2)CCOCC1
[E] CN1CCC[C@@H]1C(=O)Nc1ccc(Oc2ccc(F)c(F)c2)cn1
Ask | Reorder: IC50, max to min. Provide your answer as the labels ordered per the instruction.
Reply | E, A, B, D, C
(E: 2630 nM, A: 871 nM, B: 468 nM, D: 25.1 nM, C: 6.61 nM)
